Source: PubChem BioAssay

# System: Sam68 (KHDRBS1)
# run.description: Sam68 small-molecule binders, primary screen, biochemical, small-molecule microarray, 635 nm fluorescence (AID 1125);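 also: score merges 667 nm channel intensity with signal to noise over triplicate slides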
# test.parameters: small-molecule microarray binding, higher = more signal
property.name: composite z-score
Respond numerically, and do not add a unit to the figure.

Recorded results for 6 molecules are shown here.
- molecule: "C=CCN1C(=O)[C@]2(O[C@H](CCn3cc(CCO)nn3)[C@@H]([Si](C)(C)c3ccc(OC)cc3)[C@@H]2C)c2cc(N3CCOC3=O)ccc21"
  composite z-score: 0.448
- molecule: "CC(C)(C)N1C(=O)[C@H]2[C@H]3[C@H](O)[C@H](O)CC(=NOCc4ccccc4)[C@@H]3CC[C@H]2C1=O"
  composite z-score: 1.17
- molecule: "CCOC(=O)[C@H](Cc1ccccc1)NC(=O)CCC1CC(OC(=O)NCc2ccc3c(c2)OCO3)CC2(CCCC(COC(=O)NCC(c3ccccc3)c3ccccc3)O2)O1 (stereo partly drawn)"
  composite z-score: 1.32
- molecule: "CC(C)CON=C1C[C@@H](O)[C@@H](O)[C@@H]2[C@@H]3C(=O)N([C@@H](C)c4ccccc4)C(=O)[C@@H]3CC[C@H]12"
  composite z-score: 1.29
- molecule: "COCCCNC(=O)[C@@]1(C)c2ccccc2C(=O)N(Cc2ccc(OC(F)(F)F)cc2)[C@H]1c1ccc(CO)cc1"
  composite z-score: -1.22
- molecule: "Cc1cc2c(nc1C)CCCN2CC(C)ON=C1[C@H]2CCn3c(=O)n(-c4ccccc4)c(=O)n3[C@H]2[C@H](O)[C@@H]2O[C@H]12 (stereo partly drawn)"
  composite z-score: 1.24

Input COc1ccc(O[C@@H]2[C@H](O)CO[C@H]2C=CC#Cc2ccccc2)cc1 , output reported composite z-score.
-0.016

Input O=C1c2ccccc2[C@@]2(Cc3ccccc3N(C3CC3)C2=O)[C@H](c2ccc(CO)cc2)N1Cc1ccccc1C(F)(F)F , output reported composite z-score.
0.219

Input COC(=O)[C@@]1(Cc2ccc(F)cc2)[C@@H]2C(=CC(=O)[C@H]2CC(=O)C(=O)N(C)C)CN1C(=O)c1ccccc1 , output reported composite z-score.
1.21
